Biological target: T1, RSV F B, B Ref (RSV B)
T1 construct: whole, on cells
Experiment: FACS, % binding to RSV F B variants
reported-metric: % binding (%)

binder	reported-metric	readout-number
MPK65-v2-v1.2 (antibody, V domains shown) VH: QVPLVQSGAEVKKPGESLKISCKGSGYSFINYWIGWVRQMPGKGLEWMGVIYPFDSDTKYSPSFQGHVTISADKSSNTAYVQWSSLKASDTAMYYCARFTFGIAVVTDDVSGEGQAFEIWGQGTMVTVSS VL: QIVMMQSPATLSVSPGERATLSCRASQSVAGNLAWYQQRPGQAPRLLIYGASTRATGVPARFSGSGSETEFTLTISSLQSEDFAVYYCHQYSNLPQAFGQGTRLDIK	% binding	56.4
MPK201-v4.1 (antibody, V domains shown) VH: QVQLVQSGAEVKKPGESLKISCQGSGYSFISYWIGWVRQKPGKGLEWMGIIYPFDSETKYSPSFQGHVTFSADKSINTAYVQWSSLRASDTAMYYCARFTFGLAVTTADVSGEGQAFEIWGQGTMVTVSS VL: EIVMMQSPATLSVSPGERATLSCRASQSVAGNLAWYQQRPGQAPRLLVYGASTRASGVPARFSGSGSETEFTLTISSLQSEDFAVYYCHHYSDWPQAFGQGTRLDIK	% binding	51.9
